Origin of the recorded values: patent US7491827B2

Assignment: determine reported Ki for the given molecules.
biological target: cloned human CCR8 receptor stably expressed in L1.2 cells (Homo sapiens); construct: expressed in transfected cells; assay: whole cell binding screen: inhibition of biotinylated human I309 binding to CCR8 (FMAT 8100 HTS); conditions: L1.2/hCCR8 cells, biotinylated human I-309, 10 point concentration response starting at 10 μM; read-out: Ki of compounds to inhibit I-309 binding to CCR8
Sequence (P51685 whole entry): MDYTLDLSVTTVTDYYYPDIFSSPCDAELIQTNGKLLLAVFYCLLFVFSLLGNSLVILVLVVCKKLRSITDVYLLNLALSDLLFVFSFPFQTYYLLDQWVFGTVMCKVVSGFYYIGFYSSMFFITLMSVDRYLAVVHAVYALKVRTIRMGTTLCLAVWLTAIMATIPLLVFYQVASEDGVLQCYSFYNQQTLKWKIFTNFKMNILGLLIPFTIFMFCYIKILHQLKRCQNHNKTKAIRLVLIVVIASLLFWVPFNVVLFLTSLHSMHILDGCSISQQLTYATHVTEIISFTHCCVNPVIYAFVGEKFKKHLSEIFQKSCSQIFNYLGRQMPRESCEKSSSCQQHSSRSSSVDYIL

stdin: Retrieve Ki measured for `CCCC(=O)N1CCC(NS(=O)(=O)c2ccc(C(=O)Nc3ccccc3Cl)c3ccccc23)CC1` and print it.
stdout: < 500 nM

stdin: Retrieve Ki measured for `CC(C)c1ccc(NS(=O)(=O)c2ccc(NC(=O)c3ccccc3)c3ccccc23)cc1` and print it.
stdout: < 500 nM

stdin: Retrieve Ki measured for `O=C1c2ccccc2C(=O)N1Cc1ccc(S(=O)(=O)NC2CCCCC2)c2ccccc12` and print it.
stdout: < 30000 nM

stdin: Retrieve Ki measured for `COc1ccc(NS(=O)(=O)c2ccc(NC(=O)c3ccccc3C)c3ccccc23)cc1` and print it.
stdout: < 500 nM

stdin: Retrieve Ki measured for CCCC(=O)N1CC[C@@H](NS(=O)(=O)c2ccc(NC(=O)c3ccccc3C)c3ccccc23)[C@@H](C)C1 (single isomer, unassigned) [Compound C-140] and print it.
stdout: < 500 nM

stdin: Retrieve Ki measured for `CC(C)(C)OC(=O)N1CCC(NS(=O)(=O)c2ccc(NC(=O)C3CCC3)c3ccccc23)CC1` and print it.
stdout: < 30000 nM

stdin: Retrieve Ki measured for `Cc1ccccc1C(=O)Nc1ccc(S(=O)(=O)N[C@H]2CCNC[C@H]2CC(C)C)c2ccccc12` and print it.
stdout: < 500 nM

stdin: Retrieve Ki measured for `O=C(Nc1ccc(S(=O)(=O)NC2CCNCC2)c2ccccc12)c1ccccc1F` and print it.
stdout: < 500 nM

stdin: Retrieve Ki measured for CCNC(=O)N1CCC(NS(=O)(=O)c2ccc(NC(=O)c3ccccc3C)c3ccccc23)C1 (racemic) and print it.
stdout: < 500 nM

stdin: Retrieve Ki measured for `CCN(CC)C(=O)N1CCC(NS(=O)(=O)c2ccc(NC(=O)c3ccccc3C)c3ccccc23)CC1` and print it.
stdout: < 500 nM

stdin: Retrieve Ki measured for CCOC(=O)[C@@H]1CN(Cc2ccccc2)CC[C@@H]1NS(=O)(=O)c1ccc(NC(=O)c2ccccc2C)c2ccccc12 (racemic) and print it.
stdout: < 30000 nM
